Protocol: Short-term stability in spiked pooled human plasma (bench-top, 4 °C, 56 °C)
Stated Conditions: validation standard 2xLLOV
Observation Type: Short-time stability (24h, RT, with daylight) Accuracy [%]
Note: a bare number is incomplete; add the unit.

Q: Output Short-time stability (24h, RT, with daylight) Accuracy [%] of COC(=O)N[C@@H](C)CNc1nccc(-c2cn(C(C)C)nc2-c2cc(Cl)cc(NS(C)(=O)=O)c2F)n1 [Encorafenib]
A: 109.5%

Q: Find the measured Short-time stability (24h, RT, with daylight) Accuracy [%] of COc1cc2nccc(Oc3ccc(NC(=O)NC4CC4)c(Cl)c3)c2cc1C(N)=O [Lenvatinib] and report it.
A: 96.8%

Q: Note down Short-time stability (24h, RT, with daylight) Accuracy [%] recorded for CN(C)C(=O)c1cc2cnc(Nc3ccc(N4CCNCC4)cn3)nc2n1C1CCCC1 [Ribociclib]
A: 94.2%

Q: Look up and state reported Short-time stability (24h, RT, with daylight) Accuracy [%] for COc1cc2nccc(Oc3ccc(NC(=O)C4(C(=O)Nc5ccc(F)cc5)CC4)cc3)c2cc1OC [Cabozantinib]
A: 103.6%

Q: Return value of Short-time stability (24h, RT, with daylight) Accuracy [%] for input O=C(Nc1cnn2ccc(N3CCC[C@@H]3c3cc(F)ccc3F)nc12)N1CC[C@H](O)C1 [Larotrectinib] , no commentary.
A: 109.3%

Q: Entry Cc1ccc(Nc2nccc(N(C)c3ccc4c(C)n(C)nc4c3)n2)cc1S(N)(=O)=O [Pazopanib] needs its Short-time stability (24h, RT, with daylight) Accuracy [%] filled in; supply it.
A: 103.3%

Q: For Cc1cc(Nc2ncc(Cl)c(Nc3ccccc3S(=O)(=O)C(C)C)n2)c(OC(C)C)cc1C1CCNCC1 [Ceritinib] , write its Short-time stability (24h, RT, with daylight) Accuracy [%].
A: 66.9%

Q: Complete the entry with Short-time stability (24h, RT, with daylight) Accuracy [%] for CNC(=O)c1ccc(N2C(=S)N(c3ccc(C#N)c(C(F)(F)F)c3)C(=O)C2(C)C)cc1F [Enzalutamide]
A: 106.1%
